// EC50 lookup, one value per entry
Target: rat δ (C6-DOR) opioid receptor (Rattus norvegicus, UniProt P33533)
Sequence (P33533 whole entry): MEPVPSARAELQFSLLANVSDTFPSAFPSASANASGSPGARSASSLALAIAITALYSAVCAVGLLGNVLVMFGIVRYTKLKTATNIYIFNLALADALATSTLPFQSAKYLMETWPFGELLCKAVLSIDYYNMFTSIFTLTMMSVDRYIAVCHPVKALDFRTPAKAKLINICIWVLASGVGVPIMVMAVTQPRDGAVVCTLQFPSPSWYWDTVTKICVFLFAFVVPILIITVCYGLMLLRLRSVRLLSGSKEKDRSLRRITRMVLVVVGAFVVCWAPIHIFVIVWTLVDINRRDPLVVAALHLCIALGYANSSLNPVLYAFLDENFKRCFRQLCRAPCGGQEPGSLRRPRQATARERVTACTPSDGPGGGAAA
Assay: Stimulation of [35S]GTPγS binding, DOR
Details: [35S]GTPγS binding, C6-DOR membranes; mean ± standard error

Below, each entry is followed by its recorded EC50 result.
[
  {
    "compound": "Cc1cc(O)cc(C)c1C[C@H](N)C(=O)NC1CCNc2ccc(Oc3ccccc3)cc21 (some centres unmarked)",
    "property": "EC50",
    "result": "108 nM"
  },
  {
    "compound": "Cc1cc(O)cc(C)c1C[C@H](N)C(=O)N[C@@H]1CCS(=O)(=O)c2ccc(Cc3ccccc3)cc21",
    "property": "EC50",
    "result": "126 nM"
  },
  {
    "compound": "Cc1cc(O)cc(C)c1C[C@H](N)C(=O)N[C@@H]1CCN2CCCc3cc(Cc4ccccc4)cc1c32",
    "property": "EC50",
    "result": "570 nM"
  }
]

Q. So what does the record say about EC50 for CCCCCCc1ccc2c(c1)[C@@H](NC(=O)[C@@H](N)Cc1c(C)cc(O)cc1C)CCN2 ?
A. > 10000 nM

Q. So what does the record say about EC50 for CC(=O)N1CC[C@@H](NC(=O)[C@@H](N)Cc2c(C)cc(O)cc2C)c2cc(-c3ccccc3)ccc21 ?
A. 1520 nM

Q. So what does the record say about EC50 for Cc1cc(C(N)=O)cc(C)c1C[C@H](N)C(=O)N[C@@H]1CCNc2ccc(Cc3ccccc3)cc21 ?
A. 1590 nM

Q. So what does the record say about EC50 for Cc1cc(O)cc(C)c1C[C@H](N)C(=O)N[C@@H]1CCCc2ccc(-c3ccccc3)cc21 ?
A. 181 nM

Q. So what does the record say about EC50 for Cc1cc(O)cc(C)c1C[C@H](N)C(=O)N[C@@H]1CCNc2ccc(Oc3ccc(Cl)cc3)cc21 ?
A. 0.3 nM

Q. So what does the record say about EC50 for CC(=O)N1CC[C@@H](NC(=O)[C@@H](N)Cc2c(C)cc(O)cc2C)c2cc(Cc3ccccc3)cc(C)c21 ?
A. 384 nM

Q. So what does the record say about EC50 for Cc1cc(O)cc(C)c1C[C@H](N)C(=O)N[C@H]1c2cc(Cc3ccccc3)ccc2NC[C@H]1C ?
A. 30.9 nM

Q. So what does the record say about EC50 for CC(=O)N1CC[C@@H](NC(=O)[C@@H](N)Cc2c(C)cc(O)cc2C)c2cc(Oc3cccc(Cl)c3)ccc21 ?
A. 431 nM

* * *

Molecular target: rat μ (C6-MOR) opioid receptor (Rattus norvegicus, UniProt P33535)
Construct: expressed in transfected cells
Sequence (P33535 whole entry): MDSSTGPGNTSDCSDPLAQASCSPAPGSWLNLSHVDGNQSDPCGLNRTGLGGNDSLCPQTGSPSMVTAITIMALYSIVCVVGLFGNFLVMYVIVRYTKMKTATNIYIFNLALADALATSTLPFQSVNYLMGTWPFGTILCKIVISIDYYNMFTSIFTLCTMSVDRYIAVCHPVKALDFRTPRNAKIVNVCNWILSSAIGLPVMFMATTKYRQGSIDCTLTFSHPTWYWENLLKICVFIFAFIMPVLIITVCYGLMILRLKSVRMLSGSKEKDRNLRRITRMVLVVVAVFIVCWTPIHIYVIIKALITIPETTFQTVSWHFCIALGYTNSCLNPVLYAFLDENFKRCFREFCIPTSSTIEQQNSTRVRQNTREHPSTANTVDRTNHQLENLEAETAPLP
Test: Stimulation of [35S]GTPγS binding, MOR
Type: biochemical
Settings: [35S]GTPγS maximal stimulation compared with 10 μM standard DAMGO

[
  {
    "compound": "Cc1cc(O)cc(C)c1C[C@H](N)C(=O)N[C@@H]1CCNc2ccc(CN3CCC4(CCCCC4)CC3)cc21 [Compound 1060]",
    "% stimulation MOR": "dns"
  },
  {
    "compound": "Cc1cc(O)cc(C)c1C[C@H](N)C(=O)N[C@H]1CCNc2cc(Cc3ccccc3)ccc21 [Compound 1024]",
    "% stimulation MOR": "dns"
  },
  {
    "compound": "Cc1cc(O)cc(C)c1C[C@H](N)C(=O)N[C@@H]1CC[C@@H](C)c2ccc(Cc3ccccc3)cc21 [Compound 1121]",
    "% stimulation MOR": "dns"
  },
  {
    "compound": "Cc1cc(O)cc(C)c1C[C@H](N)C(=O)N[C@@H]1CCNc2ccc(CN3CCNCC3)cc21 [Compound 1059]",
    "% stimulation MOR": "dns"
  }
]
